Recorded values, source ChEMBL document CHEMBL2093137.

Assignment: determine reported % Inhibition for the given molecules.
System: Schistosoma mansoni
protocol-summary: WHO-TDR: Schistosomiasis
Type: functional
Set-up: concentration or dose not given beside the values
Give your result in % as a bare value.

IN: Quote Schistosoma mansoni % Inhibition for entry "O=C(Cc1ccc(Cl)cc1)Nc1cccc(-c2nc3cccnc3s2)c1" .
OUT: 58.3

IN: Would you please give the reported % Inhibition of "COc1ccc(-c2ccc(NS(=O)(=O)c3ccc(Cl)s3)cc2)nn1" with Schistosoma mansoni?
OUT: 0

IN: Give measured % Inhibition for "CC(C)(C)C(=O)Nc1nnc(SCC(=O)Nc2ccc(Cl)c(Cl)c2)s1" (Schistosoma mansoni).
OUT: 0

IN: Write down measured % Inhibition (Schistosoma mansoni) for this molecule. "COc1ccc(SCC(=O)Nc2nc(-c3ccccn3)cs2)cc1"
OUT: 0

IN: Answer briefly: % Inhibition recorded on Schistosoma mansoni for "COc1ccc(CCC(=O)NCCc2ccc(N3CCCC3)cc2)cc1"
OUT: 0

IN: Find % Inhibition for "CCOc1ncccc1C(=O)N1CCN(c2ccc(-c3ccc(Cl)cc3)nn2)CC1" on Schistosoma mansoni and write it down.
OUT: 100

IN: Give the observed % Inhibition of "O=C(CN1CCN(c2nccn2-c2cccc(Cl)c2)CC1)N1CCc2ccccc21" for Schistosoma mansoni.
OUT: 0

IN: Specify the recorded % Inhibition for CN1CCCc2cc(C(CNC(=O)COc3ccc(Cl)cc3)N3CCCC3)ccc21 (stereo not given) , system: Schistosoma mansoni.
OUT: 25

IN: Param request: % Inhibition | system Schistosoma mansoni | item "O=c1c2nccnc2n(Cc2cccc(C(F)(F)F)c2)c(=O)n1Cc1ccc(F)cc1"
OUT: 25

IN: Give the observed % Inhibition of "CCN(CC)CCN(C(=O)Cc1ccc2c(c1)OCO2)c1nc2c(C)cc(C)cc2s1" for Schistosoma mansoni.
OUT: 0

---

Please respond with reported IC50 for every item in the list.
protocol-summary: WHO-TDR: Cytotoxicity
Assay type: toxicity, cell-based
condition-info: human, MRC5 cells

IN: Supply recorded IC50 for "O=C(C1CCN(S(=O)(=O)c2cccs2)CC1)N(Cc1cccnc1)c1nc2c(F)cc(F)cc2s1" here.
OUT: > 10.9 µg/mL

IN: Entry "Cc1cc(=O)[nH]c(-n2nc(C)cc2NC(=O)c2ccccc2C(F)(F)F)n1" needs its IC50 filled in; supply it.
OUT: 2.61 µg/mL

IN: Give recorded IC50. O=C(CSc1ccc2nnc(-c3ccccn3)n2n1)NCC1CCCO1 (stereo unspecified)
OUT: > 11.1 µg/mL

IN: Give the reported value of IC50 for this record: "CCOC(=O)N1CCc2c(sc(NC(=O)c3nc4ccccc4s3)c2C(N)=O)C1"
OUT: 4.58 µg/mL

IN: Supply reported IC50 belonging to this compound: "CCN1CCc2c(sc(NC(=O)c3ccccc3)c2-c2nc3ccccc3s2)C1"
OUT: 3.75 µg/mL

IN: Give a short answer stating reported IC50 for "NC(=O)c1csc(NC(=O)C2(c3ccc(Cl)cc3)CCCC2)n1" .
OUT: > 10.5 µg/mL

IN: Specify reported IC50 for the compound shown: "CCCCOc1ccc(C(=O)N2CCN(c3ccc(Nc4cccnc4)nn3)CC2)cc1"
OUT: > 13 µg/mL

IN: Name the recorded IC50 of the compound listed here: "O=C(CSc1nncc(=O)[nH]1)Nc1ccc(Br)cc1"
OUT: 1.76 µg/mL

IN: Answer with the recorded IC50 for the compound listed here: "Cc1c(C(=O)N2CCC(C)CC2)sc2nc(-c3ccc(F)cc3)cn12"
OUT: > 10.7 µg/mL

IN: Output measured IC50 for this item: CC(C)c1cc(C(=O)NCC2CCCO2)nn1-c1nc2ccccc2s1 (stereo unspecified)
OUT: > 11.1 µg/mL

IN: Tell us which IC50 value is on record for "CCN(CC)CCSc1ccc(-c2sc(-c3ccc(F)cc3)nc2C)nn1"
OUT: > 12.1 µg/mL

---

Test system: Trypanosoma brucei brucei
protocol-summary: WHO-TDR: Human African Trypanosomiasis (HAT)
Format: functional, organism-based
condition-info: Squib-427
observation-type: log10 of IC50 (log10 of the value in µg/mL)
Scale: log10; quantity: IC50; unit before log: µg/mL

IN: Supply reported log10 of IC50 belonging to this compound: "Cc1cc(=O)[nH]c(-n2nc(C)cc2NC(=O)c2c(F)cccc2Cl)n1"
OUT: 0.29

IN: Read the entry "CN(Cc1ccco1)S(=O)(=O)c1ccc(C(=O)Nc2nc3c(s2)CSc2ccccc2-3)cc1" and write its reported log10 of IC50.
OUT: 0.35

IN: Give a short answer stating reported log10 of IC50 for "O=C(CC(c1ccccc1)c1ccccc1)NCCCn1nc(-c2ccncc2)ccc1=O" .
OUT: 0.88

IN: For the compound "Cc1cc2cc(CNC(=O)CC(c3ccccc3)c3ccccc3)ccc2[nH]1" , report log10 of IC50.
OUT: 0.53

IN: Read the entry "CN(C(=O)CN1CC(=O)Oc2ccccc21)c1ccc(O)cc1" and write its reported log10 of IC50.
OUT: 0.42

IN: For the compound "O=C(Cn1c(=O)n(Cc2cccnc2)c(=O)c2ncccc21)c1ccc2c(c1)CCCC2" , give its reported log10 of IC50.
OUT: 0.62

IN: Consider the compound "CCN(CC)c1cc(C)nc(Nc2ccc(NS(=O)(=O)c3ccc(C)cc3C)cc2)n1" and give its recorded log10 of IC50.
OUT: -0.37

IN: Answer with reported log10 of IC50 of "COc1ccccc1-c1nnc(NC(=O)c2ccc(S(=O)(=O)N(C)Cc3ccco3)cc2)o1"
OUT: 0.66

IN: Specify reported log10 of IC50 for the compound shown: CC1CCc2c(sc(Nc3nc4c(F)cccc4s3)c2C(N)=O)C1 (stereo unspecified)
OUT: 0.36

IN: Give the reported value of log10 of IC50 for this record: "Cc1cc(F)ccc1S(=O)(=O)Nc1ccc2c(c1)CN(C(=O)c1ccco1)CC2"
OUT: 0.61

IN: Supply measured log10 of IC50 of "C=CCn1c(Sc2nc3ccccc3o2)nc2c1c(=O)[nH]c(=O)n2C" in your reply.
OUT: -0.47

IN: Identify the reported log10 of IC50 for the following entry. "CN(C)CCCN(C(=O)c1ccc2c(c1)CCCC2)c1nc2ccc(Br)cc2s1"
OUT: -0.32

IN: Give a short answer stating reported log10 of IC50 for "CCc1ccc2nc(N(CCCn3ccnc3)C(=O)/C=C/c3cccs3)sc2c1" .
OUT: 0.00

---

System: Leishmania infantum
protocol-summary: WHO-TDR: Leishmaniasis
Type: functional, organism-based, Mus musculus
condition-info: Macrophage
observation-type: IC50

IN: Report value only: IC50, Leishmania infantum, "O=C(Cc1cc(-c2ccc(Cl)cc2)on1)Nc1cccnc1"
OUT: > 9.41 µg/mL

IN: Fetch value of IC50 on Leishmania infantum for "CCSc1nnc(NC(=O)CSc2nncc(=O)[nH]2)s1" .
OUT: 3.21 µg/mL

IN: Answer briefly: IC50 recorded on Leishmania infantum for CC1CCN(C(C)CNC(=O)Nc2ccccc2C(F)(F)F)CC1 (stereo unspecified)
OUT: > 10.3 µg/mL

IN: Recall the reported IC50 of O=C1CC(CNS(=O)(=O)c2ccccc2F)CN1c1ccc(Cl)cc1 (stereo unspecified) when tested on Leishmania infantum.
OUT: > 11.5 µg/mL

IN: State, for Leishmania infantum, measured IC50 of the molecule listed here: CN1CCCc2cc(C(CNC(=O)COc3ccc(Cl)cc3)N3CCCC3)ccc21 (stereo unspecified)
OUT: 4.16 µg/mL

IN: Supply IC50 measured with Leishmania infantum for "COc1cc(CSc2nc(CC(=O)NCc3ccco3)cs2)cc(OC)c1" .
OUT: > 12.1 µg/mL

---

Test system: Schistosoma mansoni
protocol-summary: WHO-TDR: Schistosomiasis
Type: functional
Parameters: concentration or dose not given beside the values
observation-type: % Inhibition (%)
Write the number in % without appending the unit.

IN: Identify measured % Inhibition associated with "CCn1ccc(C(=O)Nc2nc(C(C)(C)C)cs2)n1"
OUT: 16.7

IN: Tell me measured % Inhibition for Cc1ccc(S(=O)(=O)N(C)CC(O)COc2c(C)cc(C)cc2C)cc1 (stereo not given) please.
OUT: 0

IN: Give % Inhibition for "O=C(Nc1cccc(-c2ccc3nnc(-c4cccs4)n3n2)c1)c1c(F)cccc1F"
OUT: 0

IN: Give % Inhibition for the following compound: "O=C(COc1ccc(Cl)cc1Cl)Nc1onc2c1CCC2"
OUT: 0

IN: Give % Inhibition for the following compound: "Cn1nccc1C(=O)Nc1nc2c(s1)CSc1ccccc1-2"
OUT: 100

IN: Please report % Inhibition for the following compound: "CSc1ccc2nc(N(Cc3cccnc3)C(=O)c3ccc(C(=O)c4ccccc4)cc3)sc2c1"
OUT: 0

IN: Using the record for "CCOC(=O)Cn1/c(=N/C(=O)CSC(C)=O)sc2ccccc21" , state its measured % Inhibition.
OUT: 0

IN: Identify measured % Inhibition corresponding to "Cc1cc(NC(=O)C2(c3ccc(Cl)cc3)CCCC2)n(-c2nc3c(c(=O)[nH]2)CCC3)n1"
OUT: 56.7

IN: Note down % Inhibition recorded for "COc1ccc(S(=O)(=O)N2CCN(c3ccc(Nc4ccccn4)nn3)CC2)cc1"
OUT: 16.7

IN: Please give measured % Inhibition of the following entry: "O=C(c1cccc(F)c1)N(CCCn1ccnc1)c1nc2ccc(F)cc2s1"
OUT: 0
